molecular target: Voltage-gated potassium channel subunit beta-2 (Rattus norvegicus) (UniProt P62483); test: KvBeta enzyme negative modulators, primary screen, biochemical, NADPH fluorescence (AID 622); conditions: recombinant KvBeta, 4-cyanobenzaldehyde reduction, at 10 µM, stronger effect = higher value;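 note: slope of raw intensity against log time taken from 70 to 1610 s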
Sequence (P62483 whole entry, looked up): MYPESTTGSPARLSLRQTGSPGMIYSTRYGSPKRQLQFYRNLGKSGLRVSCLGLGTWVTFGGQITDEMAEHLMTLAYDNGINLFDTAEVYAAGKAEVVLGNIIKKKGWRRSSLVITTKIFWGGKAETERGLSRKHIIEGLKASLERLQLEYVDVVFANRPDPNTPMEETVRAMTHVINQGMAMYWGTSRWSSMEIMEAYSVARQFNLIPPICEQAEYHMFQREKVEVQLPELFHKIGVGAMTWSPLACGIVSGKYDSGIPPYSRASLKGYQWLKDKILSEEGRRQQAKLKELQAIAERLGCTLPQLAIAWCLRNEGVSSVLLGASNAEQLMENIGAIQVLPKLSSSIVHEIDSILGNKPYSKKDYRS
Here, each record is paired with measured fluorescence slope data.

molecule: CN1CCN(CCC(=O)N2c3ccccc3Sc3ccc(Cl)cc32)CC1
fluorescence slope: -0.432
//
molecule: COC(=O)Cn1cc(C(=O)OC)cc(Br)c1=O
fluorescence slope: -0.539
//
molecule: CCN(CC)CCN1C(=O)C(=O)/C(=C(/O)c2ccc(Cl)cc2)C1c1ccncc1 (stereo unspecified)
fluorescence slope: -0.357
//
molecule: C=CCn1c(SCC(=O)OC)nc2sc3c(c2c1=O)CCN(C)C3
fluorescence slope: -0.234
//
molecule: Cn1c(SCC(=O)N2CCOCC2)nnc1-c1ccc(Cl)cc1Cl
fluorescence slope: -0.453
//
molecule: NC(=O)N1c2ccccc2C=Cc2ccccc21
fluorescence slope: -0.492
//
molecule: Cc1nn(-c2cccc(Cl)c2)c2c1C(c1ccncc1)C(C#N)=C(N)O2 (stereo unspecified)
fluorescence slope: -0.382
//
molecule: CC1(C)CC(=O)C2=C(C1)OC(N)=C(C#N)[C@@]21C(=O)N(CC(N)=O)c2ccccc21
fluorescence slope: -0.464
//
molecule: COCCCNC(=O)C(C#N)c1nc2ccccc2nc1N1CCCC1 (stereo unspecified)
fluorescence slope: -0.000219
//
molecule: Cc1cc(N2C(=O)C(=O)/C(=C(/O)c3ccc(F)cc3)C2c2ccc(F)cc2)no1 (stereo unspecified)
fluorescence slope: -0.407
//
molecule: CCOC(=O)c1ccc(N=CC2=C(O)CC(c3ccco3)CC2=O)cc1 (stereo unspecified)
fluorescence slope: -0.351
